target: Env of HIV-1RF virus (HIV-1 RF); assay: cell-based or functional assay
Attribute: Anti-HIV EC50 (XTT cytopathicity assay, HIV-1RF, CEM-SS cells)
The answer is to be given in pM; state only the numeric part.

# annotated cases, reported Anti-HIV EC50 (XTT cytopathicity assay, HIV-1RF, CEM-SS cells) shown
- binder: "2mGRFT^long (2mG3) (mGRFT-GlyThrGlyGlyThrGlyGlyThrGly-mGRFT) (designed binder, also called 2mGRFT3; 2mrG3) SSTHRKFGGSGGSPFSGSGLSSIAVRSGSYLDAIIIDGVHHGGSGGNLSPTFTFGSGEYISNMTIRSGDYIDNISFETNMGRRFGPYGGSGGSANTLSNVKVIQINGSAGDYLDSLDIYYEQYGTGGTGGTGSSTHRKFGGSGGSPFSGSGLSSIAVRSGSYLDAIIIDGVHHGGSGGNLSPTFTFGSGEYISNMTIRSGDYIDNISFETNMGRRFGPYGGSGGSANTLSNVKVIQINGSAGDYLDSLDIYYEQY"
  units label: "pM"
  experimental result: 2.6
- binder: "monomeric griffithsin mGRFT (1GS-S, PDB ID 3LL2) (designed binder, also called IGS-S; GRFT monomer) SSTHRKFGGSGGSPFSGSGLSSIAVRSGSYLDAIIIDGVHHGGSGGNLSPTFTFGSGEYISNMTIRSGDYIDNISFETNMGRRFGPYGGSGGSANTLSNVKVIQINGSAGDYLDSLDIYYEQY"
  units label: "pM"
  experimental result: 119000
- binder: "2mGRFT (2mG) (mGRFT-GlyThrGly-mGRFT) (designed binder) SSTHRKFGGSGGSPFSGSGLSSIAVRSGSYLDAIIIDGVHHGGSGGNLSPTFTFGSGEYISNMTIRSGDYIDNISFETNMGRRFGPYGGSGGSANTLSNVKVIQINGSAGDYLDSLDIYYEQYGTGSSTHRKFGGSGGSPFSGSGLSSIAVRSGSYLDAIIIDGVHHGGSGGNLSPTFTFGSGEYISNMTIRSGDYIDNISFETNMGRRFGPYGGSGGSANTLSNVKVIQINGSAGDYLDSLDIYYEQY"
  units label: "pM"
  experimental result: 2.7

Consider now this further binder.
# lookup: Anti-HIV EC50 (XTT cytopathicity assay, HIV-1RF, CEM-SS cells) of 3mGRFT (3mG) (mGRFT-GlyThrGly-mGRFT-GlyThrGly-mGRFT) (designed binder) SSTHRKFGGSGGSPFSGSGLSSIAVRSGSYLDAIIIDGVHHGGSGGNLSPTFTFGSGEYISNMTIRSGDYIDNISFETNMGRRFGPYGGSGGSANTLSNVKVIQINGSAGDYLDSLDIYYEQYGTGSSTHRKFGGSGGSPFSGSGLSSIAVRSGSYLDAIIIDGVHHGGSGGNLSPTFTFGSGEYISNMTIRSGDYIDNISFETNMGRRFGPYGGSGGSANTLSNVKVIQINGSAGDYLDSLDIYYEQYGTGSSTHRKFGGSGGSPFSGSGLSSIAVRSGSYLDAIIIDGVHHGGSGGNLSPTFTFGSGEYISNMTIRSGDYIDNISFETNMGRRFGPYGGSGGSANTLSNVKVIQINGSAGDYLDSLDIYYEQY
1
